- Tested on: ryegrass, Italian
- test-name: Test C postemergence
- Assay type: in vivo, Lolium multiflorum
- run-conditions: postemergence, 62 g ai/ha; scale 0 to 100
What Ryegrass, Italian plant response rating was measured for each of the following?
Hey, just send me the number, nothing else.

query: Form field - read-out: Ryegrass, Italian plant response rating; system: ryegrass, Italian; submitted item: "CCc1cc(C(=O)NCC(F)(F)F)nn1Cc1nc(C(F)(F)F)nn1C"
result: 5

query: Then what about the compound "CCCNC(=O)c1cc(OCC)n(Cc2ccnc(OC(F)F)c2)n1" ?
result: 5

query: Moving on to the next compound: "CCc1cc(-c2ccc(C(F)(F)F)cc2)nn1Cc1ccnc(C(F)(F)F)c1"
result: 20

query: Proceed to "CCCc1cc(C(=O)NCC(F)(F)F)nn1Cc1ccnc(OC(F)F)c1"
result: 5

query: Ok, now "CCCNC(=O)c1cc(CC)n(Cc2ccnc(C(F)(F)F)c2)n1"
result: 5

Values compiled from patent US20150105252A1.
